TARGET DESC: Phosphatidylinositol 4,5-bisphosphate 3-kinase catalytic subunit beta isoform (Homo sapiens, UniProt P42338)
Sequence (P42338 whole entry, canonical isoform): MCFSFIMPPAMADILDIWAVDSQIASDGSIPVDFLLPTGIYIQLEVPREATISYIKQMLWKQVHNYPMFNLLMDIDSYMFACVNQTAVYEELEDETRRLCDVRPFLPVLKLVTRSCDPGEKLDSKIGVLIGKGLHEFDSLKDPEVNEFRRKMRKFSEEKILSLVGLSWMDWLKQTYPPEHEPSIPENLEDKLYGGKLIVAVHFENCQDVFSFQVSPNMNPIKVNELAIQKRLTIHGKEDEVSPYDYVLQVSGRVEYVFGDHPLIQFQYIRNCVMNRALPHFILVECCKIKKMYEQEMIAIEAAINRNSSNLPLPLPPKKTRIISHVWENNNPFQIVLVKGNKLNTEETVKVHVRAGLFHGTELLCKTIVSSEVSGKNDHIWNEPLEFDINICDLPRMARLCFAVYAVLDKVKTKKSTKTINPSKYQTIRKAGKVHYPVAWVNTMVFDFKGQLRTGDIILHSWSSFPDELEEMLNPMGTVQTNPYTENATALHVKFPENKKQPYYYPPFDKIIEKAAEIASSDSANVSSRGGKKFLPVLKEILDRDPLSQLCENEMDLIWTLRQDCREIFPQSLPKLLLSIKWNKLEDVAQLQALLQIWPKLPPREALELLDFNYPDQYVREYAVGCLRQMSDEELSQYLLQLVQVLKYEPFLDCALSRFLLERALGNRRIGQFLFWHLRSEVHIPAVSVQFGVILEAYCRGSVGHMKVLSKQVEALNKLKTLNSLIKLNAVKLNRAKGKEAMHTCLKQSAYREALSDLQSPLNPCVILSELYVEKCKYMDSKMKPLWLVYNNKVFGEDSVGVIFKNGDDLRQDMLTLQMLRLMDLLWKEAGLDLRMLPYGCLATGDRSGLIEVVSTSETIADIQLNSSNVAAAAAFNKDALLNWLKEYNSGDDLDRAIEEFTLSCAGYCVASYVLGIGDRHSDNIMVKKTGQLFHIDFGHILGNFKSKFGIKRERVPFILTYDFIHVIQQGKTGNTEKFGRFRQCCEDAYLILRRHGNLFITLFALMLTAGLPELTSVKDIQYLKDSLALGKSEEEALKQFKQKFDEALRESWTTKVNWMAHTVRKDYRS
PROCEDURE DETAILS: Inhibition of PI3K beta (unknown origin) using lipid substrate measured after 40 mins in presence of ATP by Kinase-Glo plus reagent based luminescence assay
pIC50: −log10 of the molar value.
Quick reference: pIC50 of the listed items.
REPORTED ENDPOINT: pIC50

>>> print(df.to_string())
                            smiles_notation  reported
0  COc1ncc(-c2ccc3ncnc(N[C@H]4CCN(C(C)=O)C4)c3c2)cc1NS(C)(=O)=O      8.30
1  COc1ncc(-c2ccc3ncnc(N[C@H]4CCN(C(=O)C5CCOCC5)C4)c3c2)cc1NS(C)(=O)=O      8.25
2  COc1ncc(-c2ccc3ncnc(NCCN4CCOCC4)c3c2)cc1NS(C)(=O)=O      7.80

Data origin, for the record: ChEMBL document CHEMBL4304761
